Provenance of the data: patent US20120244164A1

- Tested system: T1, recombinant human c-Met/Fc chimera (R&D systems) (human)
- T1 construct: R&D Systems 358-MT/CF, expressed in NS0 cells; also called hc-Met/Fc; hu c-Met/Fc
- T1 sequence (chain, as listed by the source mutant limits assumed): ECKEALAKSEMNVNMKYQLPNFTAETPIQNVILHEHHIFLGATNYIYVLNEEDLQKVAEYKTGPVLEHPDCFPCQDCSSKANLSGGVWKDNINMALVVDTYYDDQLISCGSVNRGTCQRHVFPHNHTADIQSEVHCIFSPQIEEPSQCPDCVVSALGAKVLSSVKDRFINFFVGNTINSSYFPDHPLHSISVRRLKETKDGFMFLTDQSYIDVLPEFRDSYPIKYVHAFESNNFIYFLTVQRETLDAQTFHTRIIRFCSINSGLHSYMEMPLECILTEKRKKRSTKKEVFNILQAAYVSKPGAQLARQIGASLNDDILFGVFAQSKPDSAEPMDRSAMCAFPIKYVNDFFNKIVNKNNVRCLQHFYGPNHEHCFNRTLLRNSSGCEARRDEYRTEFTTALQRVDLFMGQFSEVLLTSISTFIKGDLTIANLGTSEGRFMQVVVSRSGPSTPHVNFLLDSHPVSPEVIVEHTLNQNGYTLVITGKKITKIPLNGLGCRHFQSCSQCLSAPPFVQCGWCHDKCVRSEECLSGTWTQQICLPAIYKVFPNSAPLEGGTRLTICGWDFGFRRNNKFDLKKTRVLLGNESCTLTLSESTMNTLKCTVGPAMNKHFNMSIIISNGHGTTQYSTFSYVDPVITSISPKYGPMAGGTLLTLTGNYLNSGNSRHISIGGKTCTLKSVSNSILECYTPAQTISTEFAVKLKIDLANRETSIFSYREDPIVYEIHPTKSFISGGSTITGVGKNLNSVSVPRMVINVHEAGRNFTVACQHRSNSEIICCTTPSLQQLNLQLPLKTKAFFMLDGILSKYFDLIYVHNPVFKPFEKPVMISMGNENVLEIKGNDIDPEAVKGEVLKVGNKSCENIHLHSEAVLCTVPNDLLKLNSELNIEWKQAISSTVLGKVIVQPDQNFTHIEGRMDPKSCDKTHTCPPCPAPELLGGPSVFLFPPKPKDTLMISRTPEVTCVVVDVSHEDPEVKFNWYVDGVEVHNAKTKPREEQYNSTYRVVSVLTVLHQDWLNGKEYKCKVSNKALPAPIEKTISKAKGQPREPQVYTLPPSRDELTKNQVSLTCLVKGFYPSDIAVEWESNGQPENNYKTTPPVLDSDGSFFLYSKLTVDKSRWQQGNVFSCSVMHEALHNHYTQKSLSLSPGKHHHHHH
- Assay method text: HGF-competition Alphascreen
IC50: recorded values

{"columns": ["Binder", "IC50"],
 "data": [
  ["A007900739 (VHH, 33H10 variant; the entry holds the 3xFLAG-His6 tag) VHH: EVQLVESGGGLVQPGGSLRLSCAASGFTFDDYAIGWFRQAPGEEREGVSSISSTYGLTYYADSVKGRFTISSSNSKNTVYLQMNSLKPEDTAVYYCAATPIERLGLDAYEYDYWGQGTLVTVSS", "0.58 nM"],
  ["A007900184 (33H10-3xFLAG-His6) (VHH, the entry holds the tag; also called A007900184 (wt)) VHH: EVQLVESGGGLVQAGGSLRLSCAASGFTFDDYAIGWFRQAPGEEREGVSSISSTYGLTYYADSVKGRFTISSSNAKNTVYLQMNNLKPEDTAVYYCAATPIERLGLDAYEYDYWGQGTLVTVSS", "0.78 nM"],
  ["A007900747 (VHH, 33H10 variant; the entry holds the 3xFLAG-His6 tag) VHH: EVQLVESGGGLVQPGGSLRLSCAASGFTFDDYAIGWFRQAPGKEREGVSSISSTYGLTYYADSVKGRFTISSSNSKNTVYLQMNSLKPEDTAVYYCAATPIERLGLDAYEYDYWGQGTLVTVSS", "2.5 nM"],
  ["A007900753 (VHH, 33H10 variant; the entry holds the 3xFLAG-His6 tag) VHH: EVQLVESGGGLVQPGGSLRLSCAASGFTFDDYAIGWFRQAPGKEREGVSSISSTYGLTYYADSVKGRFTISRDNSKNTVYLQMNSLKPEDTAVYYCAATPIERLGLDAYEYDYWGQGTLVTVSS", "100 nM"]
]}
